# Tested on: UACC-257 melanoma
# method_summary: NCI tumour cell line growth inhibition, 48 h
# reported TGI; entries follow

A selection of reference data follows.
compound | target_of_assay | metric_name | assay_result
CCOC(=O)c1nc2ccc(C(F)(F)F)cc2nc1NCc1ccc(OC)c(OC)c1 | UACC-257 melanoma | TGI | > 100 µM
NC1=NN(c2ccccc2)C(=O)C1C(=O)C(=O)Nc1ccc(Cl)c(Cl)c1 (stereo not drawn) | UACC-257 melanoma | TGI | > 100 µM

IN: Give TGI for Clc1cccc(-c2nnc(-c3nn(-c4ccccc4)c4nc5ccccc5nc34)o2)c1
OUT: > 100 µM

src = PubChem BioAssay (NCI)
